System: LXFL 529
TEST_NAME: NCI tumour cell line growth inhibition, 48 h
Calls of active or inactive are those of the source. No stated cut-off is given here; in the data, active = GI50 up to about 1.1 µM and inactive = higher.
MEASURE: GI50

1) Cc1ccc2c(c1)C1(OC(=O)c3ccccc31)c1ccc(F)cc1O2 (stereo not given) ... 56.5 µM (inactive)
2) COC1CCC(OS(C)(=O)=O)CO1 (stereo not given) ... > 100 µM (inactive)
3) Cn1c(=O)c2c(ncn2CCCCn2ccnc2[N+](=O)[O-])n(C)c1=O ... > 100 µM (inactive)
4) Cn1cnc([N+](=O)[O-])c1Sc1nc2cc([N+](=O)[O-])ccc2[nH]1 ... 12.6 µM (inactive)

Exam item: Name the reported GI50 value associated with the molecule CCCCCCCCCCCCC(O)C1CCC(C(O)CCCCC(O)CCCCCC2CC(CC(C)=O)C(=O)O2)O1 (stereo not given)
Marked response: 2.81 µM (inactive)

====

System: SF-268
TEST_NAME: NCI tumour cell line growth inhibition, 48 h
Activity calls are given as the source filed them. Cut-off read from the data, not from the text of the source: active = GI50 up to about 1.1 µM and inactive = higher.
Quick list: GI50 per entry.

The following compounds have reported results that may help.
1. O=C(O)C1Cc2c([nH]c3ccccc23)C=N1 (stereo not given) ... > 100 µM (inactive)
2. Cc1cc(Cl)ccc1/N=C1/NC(=O)C(CC(=O)Nc2cccc(C)c2C)S1 (stereo not given) ... 26 µM (inactive)
3. Clc1ccc2c(NCCNc3ccnc4cc(Cl)ccc34)ccnc2c1 ... 25.9 µM (inactive)
4. O=C1c2ccccc2N2OC3(N4CCCC4)CCCC3C12c1ccccc1 (stereo not given) ... > 100 µM (inactive)

Exam item: Name the reported GI50 value associated with the compound CCCCCCCCCCCCCC(=O)OCC1OC(n2cc(F)c(=O)[nH]c2=O)C(NC(=O)OCc2ccccc2)C(OC(=O)CCCCCCCCCCCCC)C1O (stereo not given)
Marked response: > 100 µM (inactive)

====

Tested on: NCI-H23
TEST_NAME: NCI tumour cell line growth inhibition, 48 h
Activity calls are given as the source filed them. Rule as the data show it: active = GI50 up to about 1.1 µM and inactive = higher.
MEASURE: GI50

1. O=C(CCCN1CCC2(CC1)/C(=N/C1CCCCC1)NC(=O)N2c1ccccc1)c1ccc(F)cc1 ... 21.3 µM (inactive)
2. COc1ccc2c(c1)CCC(CN1CCN(CCOC(c3ccc(F)cc3)c3ccc(F)cc3)CC1)=C2 ... 14.8 µM (inactive)
3. CN(OC(=O)CC(=O)c1ccccc1)C(=O)Cc1ccccc1 ... > 100 µM (inactive)

Exam item: Give GI50 (NCI-H23) of the following molecule: O=C(N/N=C\c1cccc2ccccc12)Nc1cccc2ccccc12
Marked response: 23.7 µM (inactive)

Exam item: Give GI50 (NCI-H23) of the following molecule: CN(CCO)c1nc(=O)c2c([nH]1)CCC2
Marked response: > 100 µM (inactive)

Exam item: Give GI50 (NCI-H23) of the following molecule: Cc1cccc(Nc2cn(COCc3ccccc3)c(=O)[nH]c2=O)c1
Marked response: > 100 µM (inactive)

Exam item: Give GI50 (NCI-H23) of the following molecule: CN1CCCC(C(=O)OCC(=O)C2(O)CCC3C4CCC5=CC(=O)CCC5(C)C4C(O)CC32C)C1 (stereo not given)
Marked response: 20.5 µM (inactive)

Exam item: Give GI50 (NCI-H23) of the following molecule: COC(=O)Cc1cc(O)c(C/C=C(\C)CC/C=C(\C)C(O)C(=O)C=C(C)C)cc1O (stereo not given)
Marked response: 39.4 µM (inactive)

Exam item: Give GI50 (NCI-H23) of the following molecule: Cc1ccc(S(=O)(=O)N2CCC3(C(/C=C/c4ccccc4)=Nc4ccccc43)C2c2ccccc2)cc1 (stereo not given)
Marked response: > 100 µM (inactive)

Exam item: Give GI50 (NCI-H23) of the following molecule: Cc1cc(O)nc2c3c(ccc12)OC(C)(C)C=C3
Marked response: 5.46 µM (inactive)
